B1: Myc-hFLNc d18–21 wild type (expressed in HEK293 cells) [human] / FILIP1 CT-GFP (expressed in HEK293 cells) [not stated] (parent)
chain 1: LELSKRYSRALRPSVNGRRMVDVPVTSTGVQTDAVSGEAAEEETPAVFIRKSFQEENHIMSNLRQVGLKKPVERSSVLDRYPPAANELTMRKSWIPWMRKRENGPSITQEKGPRTNSSPGHPGEVVLSPKQGQPLHIRVTPDHENSTATLEITSPTSEEFFSSTTVIPTLGNQKPRITIIPSPNVMPQKQKSGDTTLGPERAMSPVTITTFSREKTPESGRGAFADRPTSPIQIMTVSTSAAPAEIAVSPESQEMPMGRTILKVTPEKQTVPTPVRKYNSNANIITTEDNKIHIHLGSQFKRSPGTSGEGVSPVITVRPVNVTAEKEVSTGTVLRSPRNHLSSRPGASKVTSTITITPVTTSSARGTQSVSGQDGSSQRPTPTRIPMSKESIIIHQLRMNSR
chain 2: TGDDSMRTSQLNVGTSTDVSLKITESDLSQLTASIRAPSGNEEPCLLKRLPNRHIGISFTPKEVGEHVVSVRKSGKHVTNSPFKILVGPSEIGDASKVRVWGKGLSEGHTFQVAEFIVDTRNAGYGGLGLSIEGPSKVDINCEDMEDGTCKVTYCPTEPGTYIINIKFADKHVPGSPFTVKVTGEGRMKESITRRRQAPSIATIGSTCDLNLKIPGNWFQMVSAQERLTRTFTRSSHTYTRTERTEISKTRGGETKREVRVEESTQVGGDPFPAVFGDFLGRERLGSFGSITRQQEGEASSQDMTAQVTSPSGKVEAAEIVEGEDSAYSVRFVPQEMGPHTVAVKYRGQHVPGSPFQFTVGPLGEGGAHKVRAGGTGLERGVAGVPAEFSIWTREAGAGGLSIAVEGPSKAEIAFEDRKDGSCGVSYVVQEPGDYEVSIKFNDEHIPDSPFVVPVASLSDDARR

variants of: B1; assay: co-immunoprecipitation (anti-Myc) with quantitative immunoblot; settings: HEK293 cells transiently expressing FILIP1 CT-GFP and Myc-hFLNc d18–21, n = 3–6, read off a plot
OBSERVATION_TYPE: ratio to parent

Examples from the recorded data:
Exercise: Entry under review: chain 2 S287A S290A . Reported ratio to parent?
Solution: 2.1

Exercise: Now give it for chain 2 S290A too.
Solution: 1

Exercise: Entry chain 2 S287D please
Solution: 1

Exercise: Likewise for chain 2 S290D ?
Solution: 1

A. chain 2 S287A
B. chain 2 S287D S290D
Exercise: Of A versus B , which is the one with smaller reported ratio to parent? Selection: enter the item's label.
Solution: B
